QUANTITY: melting point

Example cases with answers are listed next.
| COMPOUND | melting point |
| --- | --- |
| O=C(O)C1(NS(=O)(=O)Cc2ccc(F)cc2)Cc2ccc(-c3ccc(Cl)cc3)cc2C1 (stereo not shown) [Example B130] | 210 to 213 °C |
| O=C(N[C@@H](Cc1ccc(OCc2ccccc2)cc1)C(=O)O)c1ccc2nc(-c3ccc(Cl)cc3)cn2c1 [Example E25] | 278 to 280 °C |

Cc1cccc(COc2ccc(C[C@H](NC(=O)c3cn4ccc(-c5ccc(Cl)cc5)cc4n3)C(=O)O)cc2)c1 [Example E60] has a reported melting point of 245 to 246 °C

COc1ccc(/C=C/c2ccc3nc(C(=O)N[C@@H](Cc4ccc(OCc5ccccc5)cc4)C(=O)O)cn3c2)cc1 [Example E43] has a reported melting point of 262 to 263 °C

###

QUANTITY: melting point

Example cases with answers are listed next.
| MOLECULE | RECORDED_VALUE |
| --- | --- |
| O=C(N[C@@H](Cc1ccc(OCc2cccc(F)c2)cc1)C(=O)O)c1cn2ccc(-c3ccc(Cl)cc3)cc2n1 | 248 to 250 °C |
| O=C(Cc1ccc(OCc2ccc(C(F)(F)F)cc2)cc1)NC1(C(=O)O)Cc2ccc(-c3ccc(Cl)cc3)cc2C1 (stereo not shown) | 237 to 238 °C |
| O=C(Cc1ccc(-c2ccccc2)cc1)NC1(C(=O)O)Cc2ccc(-c3ccc(Cl)cc3)cc2C1 (stereo not shown) | 240 to 243 °C |
| O=C(N[C@@H](Cc1ccc(OCc2ccccc2)cc1)C(=O)O)c1cc2ccc(-c3ccc(Cl)cc3)cc2o1 | 170 to 171 °C |
| O=C(Cc1ccc(OCc2ccc(F)cc2)cc1)Nc1c(C(=O)O)oc2cc(-c3ccc(Cl)cc3)ccc12 | 205 to 206 °C |
| COc1cccc(COc2ccc(C[C@H](NC(=O)c3cc4cc(-c5ccc(Cl)cc5)ccc4s3)C(=O)O)cc2)c1 | 175 to 177 °C |
| O=C(N[C@@H](Cc1ccc(OCc2ccc(F)cc2)cc1)C(=O)O)c1cn2ccc(-c3ccc(Cl)cc3)cc2n1 | 255 to 257 °C |
| Cc1c(C(=O)N[C@H](C(=O)O)c2ccc(OCc3ccccc3)cc2)oc2cc(-c3ccc(Cl)cc3)ccc12 | 178 °C |

O=C(Cc1ccc(NCc2ccc(F)cc2)cc1)NC1(C(=O)O)Cc2ccc(-c3ccc(Cl)cc3)cc2C1 (stereo not shown) has a reported melting point of 188 to 190 °C

`Cc1ccc(COc2ccc(C[C@H](NC(=O)c3cc4cc(-c5ccc(Cl)cc5)ccc4s3)C(=O)O)cc2)cc1` has a reported melting point of 208 °C

O=C(Cc1ccc(Cl)cc1)NC1(C(=O)O)Cc2ccc(-c3ccc(Cl)cc3)cc2C1 (stereo not shown) has a reported melting point of 251 °C

O=C(NC(Cc1ccc(OCc2ccccc2)cc1)C(=O)O)c1cn2cc(-c3ccc(OC(F)(F)F)cc3)ccc2n1 (stereo not shown) has a reported melting point of 270 to 271 °C

Nc1c(C(=O)NC(Cc2ccc(OCc3ccccc3)cc2)C(=O)O)oc2ccc(-c3ccc(Cl)cc3)cc12 (stereo not shown) has a reported melting point of 250 °C

###

QUANTITY: melting point

O=C(O)CNC(=O)C1(NC(=O)Cc2ccc(OCc3ccc(F)cc3)cc2)Cc2ccc(-c3ccc(Cl)cc3)cc2C1 (stereo not drawn) has a reported melting point of 209 to 210 °C

O=C(Cc1ccc(OC2Cc3ccccc3C2)cc1)NC1(C(=O)O)Cc2ccc(-c3ccc(Cl)cc3)cc2C1 (stereo not drawn) has a reported melting point of 233 to 234 °C
